# Test system: DLD1 NRF2-WT
# experiment notes: drug sensitivity score (DSS) cytotoxicity (DSS score); higher = more toxic; extreme values may be limits of the assay
# condition notes: 72 h; CellTox Green cytotoxicity
I'd appreciate it if you could supply drug sensitivity score values for the items below.
No unit in the answer, only the number.

Give the measured drug sensitivity score of Nc1ccccc1NC(=O)c1ccc(CNC(=O)OCc2cccnc2)cc1 .
0

Give the measured drug sensitivity score of O=C(c1cccc(Cl)c1F)N1CCN(Cc2cccc(Nc3nccs3)n2)CC1 .
2

Give the measured drug sensitivity score of Nc1nc(F)nc2c1ncn2[C@@H]1O[C@H](CO)[C@@H](O)[C@@H]1O .
0

Give the measured drug sensitivity score of CCN(CC)C(=S)SSC(=S)N(CC)CC [Disulfiram(+CuCl2)] .
0

Give the measured drug sensitivity score of CC(C)C[C@H](NC(=O)[C@H](CCc1ccccc1)NC(=O)CN1CCOCC1)C(=O)N[C@@H](Cc1ccccc1)C(=O)N[C@@H](CC(C)C)C(=O)[C@@]1(C)CO1 .
26.9

Give the measured drug sensitivity score of CCn1c(=O)c(-c2ccc(Cl)cc2Cl)cc2cnc(Nc3ccc(N4CCNCC4)c(F)c3)nc21 .
0

Give the measured drug sensitivity score of COc1cc(C)c(/C=C/C(C)=C/C=C/C(C)=C/C(=O)O)c(C)c1C .
0

Give the measured drug sensitivity score of CCCCC(=O)OCC(=O)[C@]1(O)Cc2c(O)c3c(c(O)c2[C@@H](O[C@H]2C[C@H](NC(=O)C(F)(F)F)[C@H](O)[C@H](C)O2)C1)C(=O)c1c(OC)cccc1C3=O .
0

* * *

I'd appreciate it if you could supply drug sensitivity score values for the items below.
# Test system: DLD1 NRF2-GOF
# experiment notes: drug sensitivity score (DSS) cytotoxicity (DSS score); higher = more toxic; extreme values may be limits of the assay
# condition notes: 72 h; CellTox Green cytotoxicity
No unit in the answer, only the number.

Give the measured drug sensitivity score of Cc1cc(Nc2nc(N[C@@H](C)c3ncc(F)cn3)ncc2Cl)[nH]n1 .
0

Give the measured drug sensitivity score of CC(=O)Nc1cccc(-n2c(=O)n(C3CC3)c(=O)c3c(Nc4ccc(I)cc4F)n(C)c(=O)c(C)c32)c1 .
0

Give the measured drug sensitivity score of CC[C@@H]1[C@H](F)C(=O)N[C@@H]1COc1nccc2cc(C(N)=O)c(OC)cc12 .
0

Give the measured drug sensitivity score of CC(C)C[C@H](NC(=O)[C@H](Cc1ccccc1)NC(=O)c1cnccn1)B(O)O .
23.1

Give the measured drug sensitivity score of Cn1cc(-c2ccc(F)c(C(F)(F)F)c2)nc1C1CCN(c2ncnc3[nH]ncc23)CC1 .
0

Give the measured drug sensitivity score of CCCS(=O)(=O)Nc1ccc(F)c(C(=O)c2c[nH]c3ncc(-c4ccc(Cl)cc4)cc23)c1F .
0

Give the measured drug sensitivity score of COc1cccc2c1C(=O)c1c(O)c3c(c(O)c1C2=O)C[C@@](O)(/C(CO)=N/NC(=O)CCCCCN1C(=O)C=CC1=O)C[C@@H]3O[C@H]1C[C@H](N)[C@H](O)[C@H](C)O1 .
0

Give the measured drug sensitivity score of Cc1ccc(NC(=O)c2ccc(CN3CCN(C)CC3)cc2)cc1Nc1nc(-c2cccnc2)cs1 .
0

Give the measured drug sensitivity score of CC(O)(CS(=O)(=O)c1ccc(F)cc1)C(=O)Nc1ccc(C#N)c(C(F)(F)F)c1 (stereo unspecified) [Bicalutamide] .
0

Give the measured drug sensitivity score of CCN1C(=O)CNc2ncc(-c3ccc(-c4nc[nH]n4)nc3C)nc21 .
0.1

Give the measured drug sensitivity score of Nc1nc2[nH]cnc2c(=S)[nH]1 .
0

Give the measured drug sensitivity score of COc1cccc(OCCCN)c1-c1cc(Nc2cnc(C#N)cn2)n[nH]1 .
3.6

Give the measured drug sensitivity score of CCN1CCN(Cc2ccc(Nc3ncc(F)c(-c4cc(F)c5nc(C)n(C(C)C)c5c4)n3)nc2)CC1 .
0

Give the measured drug sensitivity score of CN(C)c1cc2c(cc1Sc1nc3c(N)nccc3n1CCNCC(C)(C)C)OCO2 .
0

Give the measured drug sensitivity score of C=CC(=O)N1CCC[C@@H](n2nc(-c3ccc(Oc4ccccc4)cc3)c3c(N)ncnc32)C1 .
0

Give the measured drug sensitivity score of COC(=O)c1ccc([C@H]2c3[nH]c4ccccc4c3C[C@H](C(=O)OC)N2C(=O)CCl)cc1 .
0

* * *

# Test system: DLD1 NRF2-GOF
# experiment notes: drug sensitivity score (DSS) cytotoxicity (DSS score); higher = more toxic; extreme values may be limits of the assay
# condition notes: 72 h; CellTox Green cytotoxicity
I'd appreciate it if you could supply drug sensitivity score values for the items below.
No unit in the answer, only the number.

Give the measured drug sensitivity score of Cc1c(N)nc([C@H](CC(N)=O)NC[C@H](N)C(N)=O)nc1C(=O)N[C@H](C(=O)N[C@H](C)[C@@H](O)[C@H](C)C(=O)N[C@H](C(=O)NCCc1nc(-c2nc(C(=O)NCCC[S+](C)C)cs2)cs1)[C@@H](C)O)[C@@H](O[C@@H]1O[C@@H](CO)[C@@H](O)[C@H](O)[C@@H]1O[C@H]1O[C@H](CO)[C@@H](O)[C@H](OC(N)=O)[C@@H]1O)c1c[nH]cn1 [Bleomycin] .
0

Give the measured drug sensitivity score of Nc1nc(Cl)nc2c1ncn2[C@H]1C[C@H](O)[C@@H](CO)O1 [Cladribine] .
0

Give the measured drug sensitivity score of CC(C)(C)c1nc(-c2cccc(NS(=O)(=O)c3c(F)cccc3F)c2F)c(-c2ccnc(N)n2)s1 [Dabrafenib] .
0

Give the measured drug sensitivity score of NC(=O)Nc1cc(-c2cccc(F)c2)sc1C(=O)N[C@H]1CCCNC1 [AZD7762] .
1.7

Give the measured drug sensitivity score of C[C@@H](Oc1cc(-n2cnc3ccc(CN4CCN(C)CC4)cc32)sc1C(N)=O)c1ccccc1C(F)(F)F .
8

Give the measured drug sensitivity score of CC(C)C[C@H](NC(=O)[C@H](CCc1ccccc1)NC(=O)CN1CCOCC1)C(=O)N[C@@H](Cc1ccccc1)C(=O)N[C@@H](CC(C)C)C(=O)[C@@]1(C)CO1 [Carfilzomib] .
22.3

Give the measured drug sensitivity score of CC(=O)[C@]1(O)Cc2c(O)c3c(c(O)c2[C@@H](O[C@H]2C[C@H](N)[C@H](O)[C@H](C)O2)C1)C(=O)c1ccccc1C3=O [Idarubicin] .
2.4

Give the measured drug sensitivity score of CN(C)C1CCN(C(=O)c2ccc(NC(=O)Nc3ccc(-c4nc(N5CCOCC5)nc(N5CCOCC5)n4)cc3)cc2)CC1 [Gedatolisib] .
0

Give the measured drug sensitivity score of NC(=O)NO [Hydroxyurea] .
0

Give the measured drug sensitivity score of O=C(Nc1cccc(Nc2ncc(Br)c(NCCc3cnc[nH]3)n2)c1)N1CCCC1 [BX-912] .
2.5

Give the measured drug sensitivity score of CC(C)[C@H]1C(=O)N[C@@H](CCCNC(=N)N)C(=O)NCC(=O)N[C@@H](CC(=O)O)C(=O)N[C@H](Cc2ccccc2)C(=O)N1C [Cilengitide] .
0

Give the measured drug sensitivity score of C[C@@H]1CN(CC(=O)Nc2ccc3c(c2)Cc2cccc(-c4cc(=O)cc(N5CCOCC5)o4)c2S3)C[C@H](C)O1 .
0

Give the measured drug sensitivity score of Cc1sc2c(c1C)C(c1ccc(Cl)cc1)=N[C@@H](CC(=O)Nc1ccc(O)cc1)c1nnc(C)n1-2 [Birabresib] .
0

* * *

# Test system: DLD1 NRF2-GOF
# experiment notes: drug sensitivity score (DSS) cytotoxicity (DSS score); higher = more toxic; extreme values may be limits of the assay
# condition notes: 72 h; CellTox Green cytotoxicity
I'd appreciate it if you could supply drug sensitivity score values for the items below.
No unit in the answer, only the number.

Give the measured drug sensitivity score of NC[C@@](O)(c1ccc(Cl)cc1)c1ccc(-c2cn[nH]c2)cc1 .
0

Give the measured drug sensitivity score of N.N.[Cl][Pt][Cl] [Cisplatin] .
1.2

Give the measured drug sensitivity score of Cc1nn(C)c(COc2ccc(N3CCN(S(=O)(=O)N(C)C)CC3)cc2)c1-c1cccc2c(CCCOc3cccc4ccccc34)c(C(=O)O)n(CCN3CCOCC3)c12 .
0

Give the measured drug sensitivity score of COc1ccc(Cn2ccc3ccc(C(=O)NO)cc32)cc1 .
0

Give the measured drug sensitivity score of Nc1cc(COc2c(Cl)cc(C[C@H](N)C(=O)O)cc2Cl)c2oc(-c3ccccc3)nc2c1 .
0

Give the measured drug sensitivity score of O=C(Nc1ccncc1)C(=O)c1cn(Cc2ccc(Cl)cc2)c2ccccc12 .
0

Give the measured drug sensitivity score of CC[C@]12C=CCN3CC[C@@]4(c5cc([C@@]6(C(=O)OC)C[C@@H]7C[C@@H](C(C)(F)F)CN(Cc8c6[nH]c6ccccc86)C7)c(OC)cc5N(C)[C@H]4[C@@](O)(C(=O)OC)[C@@H]1OC(C)=O)[C@@H]32 .
1

Give the measured drug sensitivity score of CC(C)NC(=O)COc1cccc(-c2nc(Nc3ccc4[nH]ncc4c3)c3ccccc3n2)c1 .
0
